As shown below, each of these substances has a reported Peak intensity, The number of prenyl groups added 0 value.
tested on: OltF v 2.1; experiment: Modification test of thioether-closed artificial cyclic peptides with 9.13 μM OltF v 2.1 (Example 16; Tables 11 and 12); format: biochemical, Planktothrix; set-up: key: 5: strong intensity; 4: medium intensity; 3: weak intensity; 2: very weak intensity; 1: no peak; N/A: not observed; conditions: Table 12; OltF v 2.1 9.13 μM, DMAPP 2 mM, 37° C., 18 hours
Sequence (as listed by the source): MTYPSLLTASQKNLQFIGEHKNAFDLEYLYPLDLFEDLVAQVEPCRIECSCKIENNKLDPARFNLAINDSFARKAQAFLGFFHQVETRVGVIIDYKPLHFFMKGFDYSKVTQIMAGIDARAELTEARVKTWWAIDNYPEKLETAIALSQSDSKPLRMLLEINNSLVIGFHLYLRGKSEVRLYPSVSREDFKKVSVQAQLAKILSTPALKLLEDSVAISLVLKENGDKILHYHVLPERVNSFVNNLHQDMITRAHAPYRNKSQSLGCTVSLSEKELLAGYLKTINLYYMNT
Positions of bridges follow the written chain, without caps; N, C: chain ends. Non-standard residues stand in square brackets, D forms with d. No end group written: not given here.
observable: Peak intensity, The number of prenyl groups added 0

>>> df
                                  substance  observed_value
0  DNT061 (Ac-[dY]NNRERGSDFFWFFPC; thioether (positions not given here); not fully specified (bridges))               2
1  DNT062 (Ac-[dY]NNRERGSDGGWGGPC; thioether (positions not given here); not fully specified (bridges))               3
2  DNT070 ({CH2CO}-[dY]ISWNEFNSYFWLPITC; thioether N-17 (inferred); not fully specified)               1

* * *

As shown below, each of these substances has a reported Peak intensity, The number of prenyl groups added 0 value.
test system: OltF v 2.1; test: Modification test of thioether-closed artificial cyclic peptides with 9.13 μM OltF v 2.1 (Example 16; Tables 11 and 12); assay type: biochemical, Planktothrix; design: key: 5: strong intensity; 4: medium intensity; 3: weak intensity; 2: very weak intensity; 1: no peak; N/A: not observed; settings: Table 11; OltF v 2.1 9.13 μM, DMAPP 2 mM, 37° C., 18 hours
Positions of bridges follow the written chain, without caps; N, C: chain ends. Non-standard residues stand in square brackets, D forms with d. No end group written: not given here.
observable: Peak intensity, The number of prenyl groups added 0

>>> print(df.to_string())
                                  substance  observed_value
0  YG293 ({CH2CO}-[dY]TFRDVWIFYGSLLSRC; thioether N-17 (inferred))               3
1  YG299 (Ac-[dY]CDVSGRWGYFPC; thioether (positions not given here); not fully specified (bridges))               3
2  YG296 ({CH2CO}-[dY]WYYAWDQTYKAFPC; thioether N-15 (inferred))               3
